# Test system: MDA-MB-468
# experiment-description: Cytotoxicity against human MDA-MB-468 cells assessed as reduction in cell viability incubated for 3 days by methylene blue staining based analysis
# Format: functional
# recorded-conditions: MDA-MB-468, 72 h
value-type: pIC50
When answering, recall that pIC50 equals minus log10 of the concentration in mol/L, and write that number alone.

Here's what some known entries look like.
C#CC(=O)N1CCN(C(c2ccc(Cl)cc2)c2ccc(Cl)cc2)CC1
7.19
O=C(CCl)N1CCN(C(c2ccc(Cl)cc2)c2ccc(Cl)cc2)CC1
5.76
C#Cc1nc(C(=O)N2CCN(C(c3ccc(Cl)cc3)c3ccc(Cl)cc3)CC2)cs1
7.08

Now take the following compound into account.
Asked: Quick check: pIC50 on MDA-MB-468, item `Cc1onc(C(=O)N2CCN(C(c3ccc(Cl)cc3)c3ccc(Cl)cc3)CC2)c1[N+](=O)[O-]` ?
Given back: 7.18

* * *

# System: MDA-MB-231
# experiment-description: Cytotoxicity against human MDA-MB-231 cells assessed as reduction in cell viability incubated for 3 days by methylene blue staining based analysis
# Assay type: functional
# recorded-conditions: MDA-MB-231, 72 h
// reported IC50 for each item listed
Quick note: give the figure in nM, leave out the unit.

Answered examples (3):
O=C(CCl)N1CCN(C(c2ccc(Cl)cc2)c2ccc(Cl)cc2)CC1
494
C#CC(=O)N1CCN(C(c2ccc(Cl)cc2)c2ccc(Cl)cc2)CC1
38
Cc1onc(C(=O)N2CCN(C(c3ccc(Cl)cc3)c3ccc(Cl)cc3)CC2)c1[N+](=O)[O-]
20

Let's switch to this molecule now.
Asked: Item under review: `C#Cc1nc(C(=O)N2CCN(C(c3ccc(Cl)cc3)c3ccc(Cl)cc3)CC2)cs1` . Reported IC50?
Given back: 21

* * *

# experiment-description: Cytotoxicity against mouse MEF cells assessed as reduction in cell viability incubated for 3 days by methylene blue staining based analysis
# Format: toxicity
Each entry below carries its reported IC50 at 3 days.
Answer with a number only, understood to be in nM.

Cc1onc(C(=O)N2CCN(C(c3ccc(Cl)cc3)c3ccc(Cl)cc3)CC2)c1[N+](=O)[O-]
16

Asked: Data request, read-out IC50 at 3 days, for `C#Cc1nc(C(=O)N2CCN(C(c3ccc(Cl)cc3)c3ccc(Cl)cc3)CC2)cs1`
Given back: 10

Asked: Entry `O=C(CCl)N1CCN(C(c2ccc(Cl)cc2)c2ccc(Cl)cc2)CC1` has what IC50 at 3 days?
Given back: 352

Asked: Find the recorded IC50 at 3 days belonging to `C#CC(=O)N1CCN(C(c2ccc(Cl)cc2)c2ccc(Cl)cc2)CC1` and report it.
Given back: 82

* * *

Here the recorded IC50 at 3 days is given for each entry.
# experiment-description: Cytotoxicity against human WI-38 cells assessed as reduction in cell viability incubated for 3 days by methylene blue staining based analysis
# Assay type: toxicity
Please give a number only; it is taken to be in nM.

Consider the following illustrative entries.
C#Cc1nc(C(=O)N2CCN(C(c3ccc(Cl)cc3)c3ccc(Cl)cc3)CC2)cs1
22
O=C(CCl)N1CCN(C(c2ccc(Cl)cc2)c2ccc(Cl)cc2)CC1
1740
Cc1onc(C(=O)N2CCN(C(c3ccc(Cl)cc3)c3ccc(Cl)cc3)CC2)c1[N+](=O)[O-]
60

Continue with the compound presented below.
Asked: Could you share which IC50 at 3 days value was measured for `C#CC(=O)N1CCN(C(c2ccc(Cl)cc2)c2ccc(Cl)cc2)CC1` ?
Given back: 500

Cited source: ChEMBL document CHEMBL5137109
